Provenance of the data: ChEMBL document CHEMBL1152396

Please provide measured pIC50 for the entries that follow.
tested on: A549; test: Antiproliferative activity against human A549 cells after 72 hrs by MTT assay; type: functional, cell-based; conditions: A549, 72 h
Entry type: numeric. Quantity: pIC50, the -log10 of concentration in molar units.

IN: Requested read-out: pIC50. Entry: C[C@@H]1C[C@@H](O)[C@]2(O)O[C@@H]3C[C@@]4(C=O)[C@@H](CC[C@@H]5[C@@H]4CC[C@]4(C)[C@@H](C6=CC(=O)OC6)CC[C@]54O)C[C@H]3O[C@@H]2O1
OUT: 7.70

IN: Consider next the compound C[C@]12CC[C@H]3[C@@H](CC[C@H]4C[C@H]5O[C@@H]6O[C@H](CO)C[C@@H](O)[C@]6(O)O[C@@H]5C[C@@]43CO)[C@@]1(O)CC[C@@H]2C1=CC(=O)OC1 in the same way.
OUT: 7.40

IN: One more compound: C[C@]12[C@H](O)C[C@H]3[C@@H](CC[C@H]4C[C@H]5O[C@@H]6O[C@H](CO)C[C@@H](O)[C@]6(O)O[C@@H]5C[C@@]43CO)[C@@]1(O)CC[C@@H]2C1=CC(=O)OC1 [GHALAKINOSIDE]
OUT: 7.10

====

tested on: MCF7; test: Antiproliferative activity against human MCF7 cells after 72 hrs by MTT assay; format: functional, cell-based; details: MCF7, 72 h
For each of the compounds below, state its pIC50.
Entry type: numeric. Quantity: pIC50, the -log10 of concentration in molar units.

IN: Entry C[C@@H]1C[C@@H](O[C@H]2O[C@H](CO)[C@@H](O)[C@H](O)[C@H]2O)[C@]2(O)O[C@@H]3C[C@@]4(C=O)[C@@H](CC[C@@H]5[C@@H]4CC[C@]4(C)[C@@H](C6=CC(=O)OC6)CC[C@]54O)C[C@H]3O[C@@H]2O1 : reported pIC50 = ?
OUT: 6.52

IN: What do you have for C[C@@H]1C[C@@H](O)[C@]2(O)O[C@@H]3C[C@@]4(C=O)[C@@H](CC[C@@H]5[C@@H]4CC[C@]4(C)[C@@H](C6=CC(=O)OC6)CC[C@]54O)C[C@H]3O[C@@H]2O1 [CALACTIN] ?
OUT: 7.40

IN: Try the compound C[C@@H]1C[C@@H](O)[C@]2(O)O[C@@H]3C[C@@]4(CO)[C@@H](CC[C@@H]5[C@@H]4C[C@@H](O)[C@]4(C)[C@@H](C6=CC(=O)OC6)CC[C@]54O)C[C@H]3O[C@@H]2O1
OUT: 6.52

IN: Please answer likewise for C[C@]12CC[C@H]3[C@@H](CC[C@H]4C[C@H]5O[C@@H]6O[C@H](CO)C[C@@H](O)[C@]6(O)O[C@@H]5C[C@@]43C=O)[C@@]1(O)CC[C@@H]2C1=CC(=O)OC1
OUT: 6.30

IN: CC(=O)O[C@@H]1C[C@]2(O)[C@@H]3CC[C@H]4C[C@H]5O[C@@H]6O[C@H](CO)C[C@@H](O)[C@]6(O)O[C@@H]5C[C@]4(C=O)[C@H]3CC[C@]2(C)[C@H]1C1=CC(=O)OC1 , same question.
OUT: 5.39

IN: Then what about the compound C[C@@H]1C[C@@H](O)[C@]2(O)O[C@@H]3C[C@@]4(C=O)[C@@H](CC[C@@H]5[C@@H]4CC[C@]4(C)[C@@H](C6=CC(=O)OC6)[C@H](O)C[C@]54O)C[C@H]3O[C@@H]2O1 ?
OUT: 5.42

IN: Same thing, different compound: C[C@]12CC[C@H]3[C@@H](CC[C@H]4C[C@H]5O[C@@H]6O[C@H](CO)C[C@@H](O)[C@]6(O)O[C@@H]5C[C@@]43CO)[C@@]1(O)CC[C@@H]2C1=CC(=O)OC1
OUT: 6.40

IN: Now try C[C@]12[C@H](O)C[C@H]3[C@@H](CC[C@H]4C[C@H]5O[C@@H]6O[C@H](CO)C[C@@H](O)[C@]6(O)O[C@@H]5C[C@@]43CO)[C@@]1(O)CC[C@@H]2C1=CC(=O)OC1 [GHALAKINOSIDE] .
OUT: 6.52

====

Provide the recorded pIC50 for the entries that follow.
tested on: A549; assay: Antiproliferative activity against human A549 cells after 72 hrs by MTT assay; type: functional, cell-based; conditions: A549, 72 h
Please express pIC50 as -log10 of the molar concentration.

IN: Which pIC50 reading was recorded for the compound CC(=O)O[C@@H]1C[C@]2(O)[C@@H]3CC[C@H]4C[C@H]5O[C@@H]6O[C@H](CO)C[C@@H](O)[C@]6(O)O[C@@H]5C[C@]4(C=O)[C@H]3CC[C@]2(C)[C@H]1C1=CC(=O)OC1 ?
OUT: 6.10

IN: Next up: C[C@@H]1C[C@@H](O[C@H]2O[C@H](CO)[C@@H](O)[C@H](O)[C@H]2O)[C@]2(O)O[C@@H]3C[C@@]4(C=O)[C@@H](CC[C@@H]5[C@@H]4CC[C@]4(C)[C@@H](C6=CC(=O)OC6)CC[C@]54O)C[C@H]3O[C@@H]2O1
OUT: 6.70

IN: Would you kindly repeat that for C[C@]12CC[C@H]3[C@@H](CC[C@H]4C[C@H]5O[C@@H]6O[C@H](CO)C[C@@H](O)[C@]6(O)O[C@@H]5C[C@@]43C=O)[C@@]1(O)CC[C@@H]2C1=CC(=O)OC1 ?
OUT: 7.10

IN: Next compound up: C[C@@H]1CC2(NC(=O)CS2)[C@]2(O)O[C@@H]3C[C@@]4(CO)[C@@H](CC[C@@H]5[C@@H]4CC[C@]4(C)[C@@H](C6=CC(=O)OC6)CC[C@]54O)C[C@H]3O[C@@H]2O1 (some centres undefined)
OUT: 8.10
